Molecular target: Angiotensin II receptor (AT-1) type-1 (Rattus norvegicus, UniProt P29089+P25095)
Sequence (P29089 whole entry): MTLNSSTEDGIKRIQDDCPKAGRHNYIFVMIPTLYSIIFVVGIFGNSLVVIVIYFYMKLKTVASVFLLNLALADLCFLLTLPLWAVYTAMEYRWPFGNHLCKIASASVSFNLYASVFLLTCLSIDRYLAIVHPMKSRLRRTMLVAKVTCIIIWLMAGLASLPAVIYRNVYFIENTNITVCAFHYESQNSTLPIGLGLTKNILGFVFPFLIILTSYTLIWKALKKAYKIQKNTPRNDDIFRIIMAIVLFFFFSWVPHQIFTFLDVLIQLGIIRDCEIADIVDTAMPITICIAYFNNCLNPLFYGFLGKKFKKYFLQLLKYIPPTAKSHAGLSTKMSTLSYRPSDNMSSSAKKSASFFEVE
Sequence (P25095 whole entry): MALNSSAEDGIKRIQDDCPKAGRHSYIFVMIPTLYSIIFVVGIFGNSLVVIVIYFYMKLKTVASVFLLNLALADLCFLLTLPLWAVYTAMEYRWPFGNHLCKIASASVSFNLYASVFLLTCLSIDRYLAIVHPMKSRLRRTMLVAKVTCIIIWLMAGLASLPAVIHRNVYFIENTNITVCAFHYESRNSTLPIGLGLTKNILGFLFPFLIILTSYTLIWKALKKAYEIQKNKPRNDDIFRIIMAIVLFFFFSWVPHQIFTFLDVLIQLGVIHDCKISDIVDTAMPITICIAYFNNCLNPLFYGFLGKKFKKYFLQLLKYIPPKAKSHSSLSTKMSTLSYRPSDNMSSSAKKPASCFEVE
Experiment: Binding affinity against Angiotensin II receptor, type 1 using [125I]Sar-Ile8-AII in rat liver membranes
Format: cell membranes, Membrane
ASSAY ENDPOINT: IC50 (nM)

COMPOUND: Cc1cc(C)c2nc(C(C)C)n(C3CCc4cc(-c5ccccc5-c5nn[nH]n5)ccc43)c2n1 (stereo not drawn)
UNITS SYMBOL: nM
IC50: 70

I = CCc1nc2c(C)cc(C)nc2n1C1CCCCc2cc(-c3ccccc3-c3nn[nH]n3)ccc21 (stereo not drawn)
II = CCc1nc2c(C)cc(C)nc2n1C1CCCc2cc(-c3ccccc3-c3nn[nH]n3)ccc21 (stereo not drawn)
III = CCCCc1nc2c(C)cc(C)nc2n1C1CCc2cc(-c3ccccc3-c3nn[nH]n3)ccc21 (stereo not drawn)
input: Please produce an ascending ranking of these compounds based on IC50. # the answer lists labels in the order requested
output: III, II, I
(III: 30 nM, II: 120 nM, I: 220 nM)

a = CCCc1nc2c(C)cc(C)nc2n1C1CCc2cc(-c3ccccc3-c3nn[nH]n3)ccc21 (stereo not drawn)
b = CCc1nc2c(C)ccnc2n1C1CCc2cc(-c3ccccc3-c3nn[nH]n3)ccc21 (stereo not drawn)
c = Cc1cc(C)c2nc(C3CC3)n(C3CCc4cc(-c5ccccc5-c5nn[nH]n5)ccc43)c2n1 (stereo not drawn)
input: Endpoint returns the given compounds ordered by ascending IC50. Put the labels in the order asked and list them.
output: c, a, b
(c: 0.2 nM, a: 14 nM, b: 120 nM)
